Tested on: Tov112D
Experiment description: Primary qHTS to identify gynecologic anti-cancer compounds using libraries of approved drugs and bioactive compounds (AID 1345084); further: nearly all actives have a fitted effect of over 55% in size
Assay context: Gynecologic cancer cell panel viability, ATPlite luminescence, 48 h; series mostly up to 57.5 µM
Records with an inconclusive call do not appear. Active and inactive are the calls of the source. The call rests on the fitted dose curve; in most records, active means well fitted cell-killing curve with a large enough effect; inconclusive means small, poorly fitted or top-dose-only effect, or effect the other way; inactive means flat fitted curve, though single readings scatter.
Output constraint: value belongs to active, inactive

Solved entries (count: 5):
# Compound, System name, Cat
data = [
    ("CC1(C)CC[C@]2(C(=O)O[C@@H]3O[C@H](CO)[C@@H](O)[C@H](O)[C@H]3O)CC[C@]3(C)C(=CCC4[C@@]5(C)CC[C@H](O[C@@H]6O[C@H](C(=O)O)[C@H](O)[C@H](O)[C@H]6O)C(C)(C)C5CC[C@]43C)[C@@H]2C1 (some centres undefined)", "Tov112D", "inactive"),
    ("O=C(NCCCc1ccccc1)c1cccc(-c2cc(O)c3ncccc3c2)c1", "Tov112D", "active"),
    ("Cc1ccc(-c2c(C(=O)CCl)n(CCCO)c3ncnc(N)c23)cc1", "Tov112D", "inactive"),
    ("O=c1cc(OCc2ccc(F)cc2)ccn1-c1ccc(OCCN2CCCC2)cc1", "Tov112D", "inactive"),
    ("COc1cc2ncc(-c3ccccc3)nc2cc1OC", "Tov112D", "inactive"),
]

Challenge: I'd appreciate the recorded outcome for `CC[C@@H](Nc1c(Nc2cccc(C(=O)N(C)C)c2O)c(=O)c1=O)c1cc(C(C)C)co1` from this test.
Response given: inactive

Challenge: I'd appreciate the recorded outcome for `COc1cc(N2CCOCC2)ccc1NC(=O)c1csc(-c2cccnc2)n1` from this test.
Response given: inactive

Challenge: I'd appreciate the recorded outcome for `Cc1cccc(-c2[nH]ncc2-c2ccnc3ccccc23)n1` from this test.
Response given: inactive

Challenge: I'd appreciate the recorded outcome for `CCOC(=O)C1=Cc2ccc(C(F)(F)C(F)(F)F)cc2N=C(N)C1` from this test.
Response given: inactive

Challenge: I'd appreciate the recorded outcome for `CC1(C)CN(C(=O)c2ccc(-c3cccc4nc(NC(=O)C5CC5)nn34)cc2)C1` from this test.
Response given: inactive

Challenge: I'd appreciate the recorded outcome for `C/C=C/C=C/c1cc2c(C=O)c(O)c(CC=C(C)C)cc2o1` from this test.
Response given: inactive

Challenge: I'd appreciate the recorded outcome for `COCC(=O)NC/C=C/c1ccc2ncnc(Nc3ccc(Oc4ccc(C)nc4)c(C)c3)c2c1` from this test.
Response given: inactive

----------
Experiment description: P-glycoprotein substrates identified in KB-8-5-11 adenocarcinoma cell line, qHTS therapeutic library screen (AID 1346987); further: on the % scale 0 is the no-effect control and ±100 the full control effect; nearly all actives have a fitted effect of over 65% in size
Assay context: KB-8-5-11 (P-gp overexpressing) viability, CellTiter-Glo, 72 h; series mostly up to 44.5 µM
Records with an inconclusive call do not appear. The source made the active and inactive calls. The call rests on the fitted dose curve; in most records, active means well fitted inhibition curve with a large enough effect; inconclusive means small, poorly fitted or top-dose-only effect; inactive means flat fitted curve, though single readings scatter.
Entries and their activity change, negative = cytotoxicity values follow.

# Molecule, Result
measured = [
    ("CC(=O)O[C@H]1CC(C)(C)CC2[C@]13CO[C@@]21CCC2[C@@]4(C)CC[C@H](O[C@@H]5OC[C@H](O[C@@H]6O[C@H](CO)[C@@H](O)[C@H](O)[C@H]6O[C@@H]6OC[C@@H](O)[C@H](O)[C@H]6O)[C@H](O)[C@H]5O[C@@H]5O[C@H](CO)[C@@H](O)[C@H](O)[C@H]5O)[C@@](C)(CO)C4CC[C@@]2(C)[C@]1(C)C[C@H]3O (some centres not stated)", "-5.92% [at 9.29 µM] (inactive)"),
]

We next turn to a different molecule, shown below.
Challenge: Give its activity change, negative = cytotoxicity value. Item: CC1(C)CC[C@]23CO[C@@]4(CCC5[C@@]6(C)CC[C@H](O[C@@H]7OC[C@H](O[C@@H]8O[C@H](CO)[C@@H](O)[C@H](O)[C@H]8O[C@@H]8OC[C@@H](O)[C@H](O)[C@H]8O)[C@H](O)[C@H]7O)[C@@](C)(CO)C6CC[C@@]5(C)[C@]4(C)CC2=O)[C@@H]3C1 (some centres not stated)
Response given: -22.9% [at 9.29 µM] (inactive)

----------
System name: Guanidinoacetate N-methyltransferase (Homo sapiens) (UniProt Q14353)
Experiment description: Confirmatory Screen for Target Class Profiling of Small Molecule Inhibitors of Methyltransferases (AID 1745852); further: on the % scale 0 is the no-effect control and ±100 the full control effect
Assay context: MTase-Glo luminescence, SAH detection, recombinant enzyme; at 57.3 µM (top of the series) unless noted
Attribute measured: activity change, negative = inhibition (%)
Reply with just the number (in %).

A selection of reference data follows.
# Compound, activity change, negative = inhibition [%]
records = [
    ("CCCCNc1ncc(C(=O)NCc2ccc(-n3ccnc3)cc2)c(NC2CCC(O)CC2)n1 (stereo not given)", -6.08),
    ("COc1ccc(CCc2nc3c(C)c(-c4c(C)noc4C)c(C)cc3n2CCN2CCOCC2)cc1", 5.22),
    ("Cc1cc(N2CCOCC2)ccc1Nc1nc(NC2CCCCC2)c2[nH]cnc2n1", -8.72),
    ("C/C=C(/C)C(=O)O[C@H]1C=C(CO)C(=O)[C@H](OC(=O)/C(C)=C/CO)[C@H]1C(C)C", -5.13),
]

Challenge: Give the reported activity change, negative = inhibition for `Fc1ccc(N2CCCCC2)c(NC(=S)c2ccncc2)c1` (system: Guanidinoacetate N-methyltransferase (Homo sapiens) (UniProt Q14353)).
Response given: 2.26

----------
Tested on: OV90
Experiment description: Primary qHTS to identify gynecologic anti-cancer compounds using libraries of approved drugs and bioactive compounds (AID 1345084); further: nearly all actives have a fitted effect of over 55% in size
Assay context: Gynecologic cancer cell panel viability, ATPlite luminescence, 48 h; series mostly up to 57.5 µM
Records with an inconclusive call do not appear. The source made the active and inactive calls. Calls follow the shape of the dose curve; as a rule, active = well fitted cell-killing curve with a large enough effect; inconclusive = small, poorly fitted or top-dose-only effect, or effect the other way; inactive = flat fitted curve, though single readings scatter.
Output constraint: value belongs to true (1) = active, false (0) = inactive

Solved entries (count: 5):
# Compound, System name, Cat
data = [
    ("CC(=O)NC[C@H]1CN(c2ccc(N3CCSCC3)c(F)c2)C(=O)O1", "OV90", "false (0)"),
    ("CCCCc1ccc(NS(=O)(=O)c2ccc(F)cc2)cc1", "OV90", "false (0)"),
    ("Cn1nc(C(C)(C)C)cc1C(=O)N[C@@H](Cc1cccc(Cl)c1)C(=O)NCC#N", "OV90", "false (0)"),
    ("CC(=O)C1=C(O)C=C2Oc3c(C(C)=O)c(O)c(C)c(O)c3[C@]2(C)C1=O", "OV90", "false (0)"),
    ("C=C1C(=O)O[C@@H]2C=C(COC(C)=O)CC/C=C(\\CO)CC[C@@H]12", "OV90", "false (0)"),
]

Challenge: I'd appreciate the recorded outcome for `Clc1ccc(Cn2c(Cc3ccccc3)nc3ccccc32)cc1` from this test.
Response given: false (0)

Challenge: I'd appreciate the recorded outcome for `COc1ccc2[nH]c(=O)c3c(c2c1)OC(C)(C)C=C3` from this test.
Response given: false (0)

Challenge: I'd appreciate the recorded outcome for `C=CC(=O)N1CCN(C(=O)CNc2cc(-c3ccccc3Cl)c(Cl)cc2OC)CC1` from this test.
Response given: false (0)

Challenge: I'd appreciate the recorded outcome for `C=C1C(=O)O[C@@H]2/C=C(\C)CC/C=C(\C)CC[C@@H]12` from this test.
Response given: false (0)

Challenge: I'd appreciate the recorded outcome for `C/C=C/C=C/c1cc2c(C=O)c(O)c(CC=C(C)C)cc2o1` from this test.
Response given: false (0)

----------
Test system: Zika virus NS2B-NS3 protease (linked construct)
Experiment description: Confirmatory screen NINDS AMC qHTS for Zika virus inhibitors (AID 1347152); further: nearly all actives have a fitted effect of over 70% in size
Assay context: Purified linked NS2B-NS3, AMC substrate fluorescence; series mostly up to 36.9 µM
From the text: Assay Submitters (PI): Avindra Nath, Ph.D., National Institute of Neurological Disorders and Stroke (NINDS), Bethesda, MD Radhakrishnan Padmanabhan, Ph.D., Georgetown University (GU), Washington D.C. Zika Virus causes congenital defects, including microcephaly and is associated with Guillain-Barre syndrome, eningoencephalitis and myelitis in infected adult. […]
Inconclusive results are not listed. Calls of active or inactive are those of the source. Calls come from the whole dose curve; as a rule, active = well fitted inhibition curve with a large enough effect; inconclusive = small, poorly fitted or top-dose-only effect; inactive = flat fitted curve, though single readings scatter.
Output constraint: value belongs to class 1 (active), class 0 (inactive)

Solved entries (count: 3):
# Compound, System name, Cat
data = [
    ("CC#C[C@@H](CC(=O)O)c1ccc(OCc2cccc(-c3ccc(C(F)(F)F)cc3)c2)cc1", "Zika virus NS2B-NS3 protease (linked construct)", "class 1"),
    ("COc1ccc(-c2ccccc2)cc1NS(=O)(=O)c1cc(Cl)cc(Cl)c1O", "Zika virus NS2B-NS3 protease (linked construct)", "class 1"),
    ("O=C(O)c1ccc(S(=O)(=O)N(Cc2ccc(OC(F)(F)F)cc2)c2ncc(C(F)(F)F)cc2Cl)cc1", "Zika virus NS2B-NS3 protease (linked construct)", "class 1"),
]

Challenge: I'd appreciate the recorded outcome for CC(O)(C(=O)O)C1CCC2(C)C1CCC1(C)C2CCC2C3(C)CCC(O)C(C)(COC4OC(CO)C(O)C(O)C4O)C3CCC21C (stereo not given) from this test.
Response given: class 0

Challenge: I'd appreciate the recorded outcome for `CC(C)(C)Sc1c(CC(C)(C)C(=O)O)n(Cc2ccc(Cl)cc2)c2ccc(OCc3ccc4ccccc4n3)cc12` from this test.
Response given: class 1
